Could you please report measured Phosphatase activity in percent of the value obtained in the absence of effectors for the items listed next?
- TARGET OR TEST SYSTEM: TC.PTP (Homo sapiens, UniProt P17706)
- Construct: made in house; host or cells: Sf9 cells (baculovirus)
- Sequence (P17706 whole entry): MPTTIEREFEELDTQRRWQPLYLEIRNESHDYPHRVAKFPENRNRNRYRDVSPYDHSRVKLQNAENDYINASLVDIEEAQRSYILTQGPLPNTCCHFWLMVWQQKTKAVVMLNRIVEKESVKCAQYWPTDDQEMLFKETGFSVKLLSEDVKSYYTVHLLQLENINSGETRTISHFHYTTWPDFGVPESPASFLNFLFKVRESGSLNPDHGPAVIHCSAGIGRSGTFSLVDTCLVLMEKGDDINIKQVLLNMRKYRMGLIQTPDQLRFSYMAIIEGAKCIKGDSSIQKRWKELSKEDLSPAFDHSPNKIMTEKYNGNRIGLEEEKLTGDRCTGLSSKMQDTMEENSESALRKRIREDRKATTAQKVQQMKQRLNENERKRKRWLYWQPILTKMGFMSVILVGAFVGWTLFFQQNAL
- ASSAY NAME: Phosphatase assay with ENDY(P)INASL as substrate
- Assay type: biochemical
- RUN PARAMETERS: TC.PTP; effector 1.0 mM
Quick reminder: number only, in %, skip the unit.

q: Given `[Mn+2]` , state its recorded Phosphatase activity in percent of the value obtained in the absence of effectors.
a: 49

q: Another compound to check: `[Zn+2]`
a: 8

q: Another compound to check: `O=C(O)CN(CCN(CC(=O)O)CC(=O)O)CC(=O)O`
a: 119

q: Another compound to check: `[Mg+2]`
a: 72
